The values you see were collected from patent US20110118131A1.

Field: fold difference in affinity against the original. Provide a value for each of the binders that follow.
- measurement.target: T1, IL-1β (UniProt P01584 117-269)
- T1 construct: Antigen of XPA23
- protocol.description: Biacore, Fab periplasmic extract
Give bare numbers, in fold.

Example binders with recorded fold difference in affinity against the original:
{"binder": "XPA23 heavy chain R59P (Fab, V domains shown, Fab, periplasmic extract; also called C5A R59P) VH: EVQLLESGGGLVQPGGSLRLSCAASGFTFSKYFMFWVRQAPGKGLEWVSVISPSGGMTPYADSVKGRFTISRDNSKNTLYLQMNSLRAEDTAVYYCARVGYGGNSDYWGQGTLVTVSS VL: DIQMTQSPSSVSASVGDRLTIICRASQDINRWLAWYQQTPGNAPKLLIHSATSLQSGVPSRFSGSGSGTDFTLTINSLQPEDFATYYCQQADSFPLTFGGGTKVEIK", "endpoint.result": 0.07}
{"binder": "XPA23 heavy chain M57I (Fab, V domains shown, Fab, periplasmic extract; also called C5A M57I) VH: EVQLLESGGGLVQPGGSLRLSCAASGFTFSKYFMFWVRQAPGKGLEWVSVISPSGGITRYADSVKGRFTISRDNSKNTLYLQMNSLRAEDTAVYYCARVGYGGNSDYWGQGTLVTVSS VL: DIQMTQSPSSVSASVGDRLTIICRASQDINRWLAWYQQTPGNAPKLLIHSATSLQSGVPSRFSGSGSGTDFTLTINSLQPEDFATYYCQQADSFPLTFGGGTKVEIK", "endpoint.result": 0.03}

// switching to the query binder
Given the binder XPA23 heavy chain K31V (Fab, V domains shown, Fab, periplasmic extract; also called C5A K31V) VH: EVQLLESGGGLVQPGGSLRLSCAASGFTFSVYFMFWVRQAPGKGLEWVSVISPSGGMTRYADSVKGRFTISRDNSKNTLYLQMNSLRAEDTAVYYCARVGYGGNSDYWGQGTLVTVSS VL: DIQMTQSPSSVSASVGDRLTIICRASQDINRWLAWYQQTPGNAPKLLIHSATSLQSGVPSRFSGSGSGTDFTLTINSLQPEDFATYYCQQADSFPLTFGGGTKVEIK , what is its reported fold difference in affinity against the original?
0.81
